# targetOfAssay: T1, SARS-CoV-2 spike glycoprotein S1+S2 extracellular domain (SARS-CoV-2, reference sequence, UniProt P0DTC2)
# T1 construct: also called full-length spike glycoprotein ectodomain
# measurementNotes: ELISA
readoutType: OD450 (OD450)
All answers are understood in OD450, so give the number only.

binder	OD450, OD450
FN 8C (antibody, V domains shown, source: HEK293T, transfected; culture supernatant or purified) VH: QVQLVESGGGVVQPGRSLRLSCAASGFTFSSYGMHWVRQAPGKGLEWVAVISYDGSNKYYADTVKGRFTISRDNSKNTLYLQMNSLRAEDTAVYYCARERTYYDILTGYRHYYGMDVWGQGTTVTVSS VL: SYELTQPPSVSVAPGQTARITCGGNNIGSKSVHWYQQKPGQAPVLVVYDDSDRPSGIPERFSGSNSGNTATLTISRVEAGDEADYYCQVWDSSSDHWVFGGGTKLTVL	0.54
FJ 4E (antibody, V domains shown, source: HEK293T, transfected; culture supernatant or purified) VH: QVQLVESGPGLVKPSETLSLTCSVSGGSISSGTYYWSWIRQQPGKGLEWIGYIYNTGRPYYNPFLKSRITISVDSSKNQFSLKLTSVTAADTAVYYCARDEYDSSDSGIQGHWFDPWGQGTLVTVSS VL: AIRMTQSPSSLSASVGDRVTITCRTSQNINSFLNWYQQKPGKGPNLLIYGAFTLQSGVPSRFSGSGSGTDFTLTISSLQPEDFATYFCQQSYSTPWTFGQGTKVEIK	0.26

What value of OD450 has been recorded for this entry: FD 1D (antibody, V domains shown, source: HEK293T, transfected; culture supernatant or purified) VH: EVQLVESGGGVVQPGRSLRLSCAASGFTFSSYAMHWVRQAPGKGLEWVAVISYDGSNKYYADSVKGRFTISRDNSKNTLYLQMNSLRAEDTAVYYCARAGSGSYLNWFDPWGQGTLVTVSS VL: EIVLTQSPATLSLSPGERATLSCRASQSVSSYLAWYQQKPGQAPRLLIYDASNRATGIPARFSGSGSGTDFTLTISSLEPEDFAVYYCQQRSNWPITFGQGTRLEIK
0.4
